inhibition: recorded values
- measuredTarget: MAP kinase-interacting serine/threonine-protein kinase 2 (Homo sapiens)
- particulars: at 0.1 µM
- Description: GSK_PKIS: MNK2 mean inhibition at 0.1 uM [Nanosyn]
Kindly provide the numeric value in % only, without the unit symbol.

Some solved entries appear below for comparison.
> print(dat)
                                   compound  metricname  unitsymbol  numericvalue
1  COc1ccc(-c2cc(-c3c[nH]nc3-c3ccccn3)ccn2)cc1  inhibition           %             2
2  COC(=O)Nc1nc2ccc(S(=O)(=O)c3ccc(NC(=O)Nc4cc(C(F)(F)F)ccc4F)cc3)cc2[nH]1  inhibition           %             1
3  c1cc(-c2cnn3nc(N4CCOCC4)ccc23)nc(NC2CC2)n1  inhibition           %          7.65

Task: # returns recorded inhibition (system: MAP kinase-interacting serine/threonine-protein kinase 2 (Homo sapiens)) for `[O-][S+]1CCN(Cc2ccc(-c3ccc4ncnc(Nc5ccc(OCc6cccc(F)c6)c(Cl)c5)c4c3)o2)CC1`
Result: 1.46

Task: # returns recorded inhibition (system: MAP kinase-interacting serine/threonine-protein kinase 2 (Homo sapiens)) for `COc1ccc(-c2oc3ncnc(N)c3c2-c2ccc(NC(=O)Nc3cc(C(F)(F)F)ccc3F)cc2)cc1`
Result: 9.42

Task: # returns recorded inhibition (system: MAP kinase-interacting serine/threonine-protein kinase 2 (Homo sapiens)) for `CCN(CC)S(=O)(=O)c1ccc(OC)c(Nc2ncc(-c3ccccc3)o2)c1`
Result: 1.51

Task: # returns recorded inhibition (system: MAP kinase-interacting serine/threonine-protein kinase 2 (Homo sapiens)) for `CCNC(=O)O[C@H]1CN[C@H](C#Cc2cc3ncnc(Nc4ccc(OCc5cccc(F)c5)c(Cl)c4)c3s2)C1`
Result: 0.73

Task: # returns recorded inhibition (system: MAP kinase-interacting serine/threonine-protein kinase 2 (Homo sapiens)) for `CN1CCC(n2cnc(-c3ccc(F)cc3)c2-c2ccnc(Nc3ccccc3)n2)CC1`
Result: 1.79

Task: # returns recorded inhibition (system: MAP kinase-interacting serine/threonine-protein kinase 2 (Homo sapiens)) for `CS(=O)(=O)CCNCc1ccc(-c2ccc3ncnc(Nc4ccc(OCc5ccccc5)c(C(F)(F)F)c4)c3c2)o1`
Result: -0.02

Task: # returns recorded inhibition (system: MAP kinase-interacting serine/threonine-protein kinase 2 (Homo sapiens)) for `COc1cc(N2CCN(C(C)C)CC2)ccc1Nc1nc(Nc2ccc(F)cc2C(N)=O)c2cc[nH]c2n1`
Result: 1.81

Task: # returns recorded inhibition (system: MAP kinase-interacting serine/threonine-protein kinase 2 (Homo sapiens)) for `Cc1cccc(Nc2ncc(-c3ccccc3)o2)c1`
Result: 3.35

Task: # returns recorded inhibition (system: MAP kinase-interacting serine/threonine-protein kinase 2 (Homo sapiens)) for `Nc1nc(-c2ccc(F)cc2)c(-c2ccc3ncccc3n2)s1`
Result: 1.91

Task: # returns recorded inhibition (system: MAP kinase-interacting serine/threonine-protein kinase 2 (Homo sapiens)) for `c1ccc(COc2ccc(Nc3ncnc4ccc(-c5ccco5)cc34)cc2)cc1`
Result: 2.49

Task: # returns recorded inhibition (system: MAP kinase-interacting serine/threonine-protein kinase 2 (Homo sapiens)) for `CNC(=O)c1cccc(C#Cc2cncnc2Nc2ccc(OCc3cccc(F)c3)c(Cl)c2)c1`
Result: 1.92

Task: # returns recorded inhibition (system: MAP kinase-interacting serine/threonine-protein kinase 2 (Homo sapiens)) for `O=S(=O)(CCNCc1ccc(-c2ccc3ncnc(Nc4ccc(OCc5cccc(F)c5)c(Cl)c4)c3c2)o1)c1ccccc1`
Result: 0.8

Task: # returns recorded inhibition (system: MAP kinase-interacting serine/threonine-protein kinase 2 (Homo sapiens)) for `Fc1cccc(COc2ccc(Nc3ncnc4sc(-c5ccco5)cc34)cc2Cl)c1`
Result: -0.22

Task: # returns recorded inhibition (system: MAP kinase-interacting serine/threonine-protein kinase 2 (Homo sapiens)) for `CN(C)CCOc1ccc(-c2nc(-c3ccncc3)c(-c3ccc4c(c3)CC/C4=N\O)[nH]2)cc1`
Result: 1.42

Task: # returns recorded inhibition (system: MAP kinase-interacting serine/threonine-protein kinase 2 (Homo sapiens)) for `COC(=O)Nc1nc2ccc(Oc3ccc(NC(=O)Nc4cccc(Cl)c4)cc3)cc2[nH]1`
Result: -1.23

Task: # returns recorded inhibition (system: MAP kinase-interacting serine/threonine-protein kinase 2 (Homo sapiens)) for `NC(=O)c1sc(-n2cnc3ccc(C(F)(F)F)cc32)cc1OCc1ccccc1Br`
Result: 1.04

Task: # returns recorded inhibition (system: MAP kinase-interacting serine/threonine-protein kinase 2 (Homo sapiens)) for `CS(=O)(=O)CCNCc1coc(-c2ccc3ncnc(Nc4ccc(OCc5ccccc5)cc4)c3c2)c1`
Result: 3.42

Task: # returns recorded inhibition (system: MAP kinase-interacting serine/threonine-protein kinase 2 (Homo sapiens)) for `CCCN(CCS(C)(=O)=O)Cc1ccc(-c2ccc3ncnc(Nc4ccc(OCc5cccc(F)c5)c(Cl)c4)c3c2)o1`
Result: 2.98

Task: # returns recorded inhibition (system: MAP kinase-interacting serine/threonine-protein kinase 2 (Homo sapiens)) for CC1=C(C(=O)Nc2cc(Cl)c3[nH]ncc3c2)C(c2ccc(C(F)(F)F)cc2)CC(=O)N1 (centres undefined)
Result: 2.19

Task: # returns recorded inhibition (system: MAP kinase-interacting serine/threonine-protein kinase 2 (Homo sapiens)) for `c1ccc(-c2nc3n(c2-c2ccc4c(c2)OCO4)CCC3)nc1`
Result: 0.98

Task: # returns recorded inhibition (system: MAP kinase-interacting serine/threonine-protein kinase 2 (Homo sapiens)) for `Nc1ncc(-c2cccc(S(N)(=O)=O)c2)c2scc(-c3ccc(F)c(Cl)c3)c12`
Result: 1.7

Task: # returns recorded inhibition (system: MAP kinase-interacting serine/threonine-protein kinase 2 (Homo sapiens)) for `Nc1nc(-c2cccc(Cl)c2)c(-c2ccc3ncccc3n2)s1`
Result: 2.72

Task: # returns recorded inhibition (system: MAP kinase-interacting serine/threonine-protein kinase 2 (Homo sapiens)) for `COc1cc(/C=N/Nc2ncnc3[nH]ncc23)ccc1O`
Result: 3.33

Task: # returns recorded inhibition (system: MAP kinase-interacting serine/threonine-protein kinase 2 (Homo sapiens)) for `COc1ccc(-c2nn3ncccc3c2-c2ccnc(Nc3ccc4c(c3)OCCO4)n2)cc1`
Result: -0.13

Task: # returns recorded inhibition (system: MAP kinase-interacting serine/threonine-protein kinase 2 (Homo sapiens)) for `COc1ccc(CNC(=O)c2ccc(-c3cc(-c4nnc(C)o4)ccc3C)cc2)cc1`
Result: 4.37
